Tested on: Lindernia pyxidaria
test summary: Test Example 12: herbicidal effect test by treatment during growing period in paddy field
Assay type: in vivo
condition set: 120 g/10a; treatment seven days after sowing in flooded paddy pot; assessed 14 days after treatment
Decide using Weed suppression rate (%) Lindemia pyxidaria alone. Strictly below 80%: 1. Equal to or above 80%: -1.

Criterion: Weed suppression rate (%) Lindemia pyxidaria strictly below 80%. Is it met by CCS(=O)(=O)n1ncn(C(=O)N(c2ccc(F)cc2F)C(C)C)c1=O ?
-1

Likewise for Cc1ccc(S(=O)(=O)n2ncn(C(=O)N(c3ccc(F)c(F)c3F)C(C)C)c2=O)cc1 ?
1

How about Cc1ccccc1S(=O)(=O)n1ncn(C(=O)N(c2ccc(F)cc2F)C(C)C)c1=O ?
-1

Now the same for CCS(=O)(=O)n1ncn(C(=O)N(c2ccc(F)c(F)c2F)C(C)C)c1=O
-1

Try CCN(CC)C(=O)n1cnn(S(=O)(=O)c2ccccc2Cl)c1=O next.
1

What do you have for CC(C)N(C(=O)n1cnn(S(=O)(=O)N2CCCCC2)c1=O)c1ccc(F)cc1F ?
1

Another compound: CC(C)N(C(=O)n1cnn(S(=O)(=O)C2CC2)c1=O)c1ccc(C(F)(F)F)cc1Cl
-1

# repeat for CN(C(=O)n1cnn(S(=O)(=O)c2ccc(F)cc2)c1=O)c1ccc(F)cc1F
1

Continue with Cc1ccc(S(=O)(=O)n2ncn(C(=O)N(c3ccc(Cl)cc3F)C(C)C)c2=O)cc1
-1

Do the same for CC(C)N(C(=O)n1cnn(S(=O)(=O)c2ccccc2C(F)(F)F)c1=O)c1ccc(F)cc1F please
1

Moving on to the next compound: CC(C)N(C(=O)n1cnn(S(=O)(=O)c2cccc(F)c2)c1=O)c1ccccc1F
-1

Same for CC(C)N(C(=O)n1cnn(S(=O)(=O)c2c(F)c(F)c(F)c(F)c2F)c1=O)c1ccccc1F
1

Another compound: Cc1cc(F)ccc1N(C(=O)n1cnn(S(=O)(=O)c2ccc(F)cc2)c1=O)C(C)C
-1

// repeat for CC(C)N(C(=O)n1cnn(S(=O)(=O)c2ccc(Cl)cc2)c1=O)c1ccc(F)c(F)c1F and report
1

Request: CC(C)N(C(=O)n1cnn(S(=O)(=O)Cc2ccccc2)c1=O)c1ccc(F)cc1F
-1

Next record, please: CC(C)N(C(=O)n1cnn(S(=O)(=O)c2c(F)cccc2F)c1=O)c1c(F)cc(F)cc1F
1
